molecular target: Tyk2-JH1JH2 (Homo sapiens (Human), UniProt P29597, C1142A/C936A); assay: Enzymatic inhibition assay (RapidFire HTMS), Tyk2; conditions: 50 μM ATP, 200 μM substrate
Sequence (P29597 580-1182 C936A/C1142A): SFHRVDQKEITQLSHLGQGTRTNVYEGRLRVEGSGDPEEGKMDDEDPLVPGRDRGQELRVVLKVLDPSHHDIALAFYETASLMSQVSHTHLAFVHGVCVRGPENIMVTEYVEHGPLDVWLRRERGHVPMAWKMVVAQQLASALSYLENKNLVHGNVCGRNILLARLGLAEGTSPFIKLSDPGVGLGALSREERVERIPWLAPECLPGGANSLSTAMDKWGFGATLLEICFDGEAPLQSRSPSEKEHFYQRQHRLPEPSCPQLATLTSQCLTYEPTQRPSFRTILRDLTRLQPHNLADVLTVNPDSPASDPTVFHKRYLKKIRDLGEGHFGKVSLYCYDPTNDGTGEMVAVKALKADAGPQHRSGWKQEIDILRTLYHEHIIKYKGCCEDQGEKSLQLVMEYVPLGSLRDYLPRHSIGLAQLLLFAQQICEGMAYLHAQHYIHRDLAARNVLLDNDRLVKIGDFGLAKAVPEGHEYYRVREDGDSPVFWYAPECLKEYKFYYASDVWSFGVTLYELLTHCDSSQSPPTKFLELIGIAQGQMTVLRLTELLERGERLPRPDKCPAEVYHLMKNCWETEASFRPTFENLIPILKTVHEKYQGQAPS
pIC50: −log10 of the molar value.
Property Measured: pIC50

structure=N#CC[C@H]1CC[C@H](n2c(CC(=O)N3CCC(C#N)CC3)nc3cnc4[nH]ccc4c32)CC1 observed_value=8.16

(P) N#CC[C@H]1CC[C@H](n2c(-c3cn[nH]c3)nc3cnc4[nH]ccc4c32)CC1
(Q) CC(C)(O)C1CCN(C(=O)Cc2nc3cnc4[nH]ccc4c3n2[C@H]2CC[C@H](CC#N)CC2)CC1
(R) N#CC[C@H]1CC[C@H](n2c(CNC(=O)C3CCCCC3)nc3cnc4[nH]ccc4c32)CC1
INPUT: Order field: pIC50 | Direction: descending (largest first) The labels, placed in the requested order, form the answer.
OUTPUT: Q, P, R
(Q: 8.35, P: 7.94, R: 7.27)

----------
pIC50: −log10 of the molar value.
JAK3-JH1JH2 (Homo sapiens (Human)) measurements of pIC50, listed per entry.
Property Measured: pIC50

(A) N#CC[C@H]1CC[C@H](n2c(CC(=O)NCC34CC5CC(CC(C5)C3)C4)nc3cnc4[nH]ccc4c32)CC1
(B) N#CC[C@H]1CC[C@H](n2c(CC(=O)NCc3ccc(CO)cc3)nc3cnc4[nH]ccc4c32)CC1
INPUT: Pick one: A or B . Which has the bigger pIC50 number? State your choice using its label.
OUTPUT: A

(a) [H]/N=C(/c1ccccc1)N(O)Cc1nc2cnc3[nH]ccc3c2n1[C@H]1CC[C@H](CC#N)CC1 [Ex. 17B]
(b) N#CC[C@H]1CC[C@H](n2c(C(=O)NCC3CC3)nc3cnc4[nH]ccc4c32)CC1
(c) N#CC[C@H]1CC[C@H](n2c(CC(=O)NC34CC5CC(CC(O)(C5)C3)C4)nc3cnc4[nH]ccc4c32)CC1
INPUT: Put the compounds in ascending order of pIC50. The labels, placed in the requested order, form the answer.
OUTPUT: b, a, c

(P) N#CC[C@H]1CC[C@H](n2c(-c3cnn(Cc4cocn4)c3)nc3cnc4[nH]ccc4c32)CC1
(Q) CC(C)(O)CNC(=O)Cc1nc2cnc3[nH]ccc3c2n1[C@H]1CC[C@H](CC#N)CC1
INPUT: Dear colleague, could you let me know whether P or Q has the lower recorded pIC50? Thanks. State your choice using its label.
OUTPUT: P

----------
pIC50: −log10 of the molar value.
JAK1-JH1JH2 (Homo sapiens (Human), UniProt P23458) measurements of pIC50, listed per entry.
Sequence (P23458 574-1154): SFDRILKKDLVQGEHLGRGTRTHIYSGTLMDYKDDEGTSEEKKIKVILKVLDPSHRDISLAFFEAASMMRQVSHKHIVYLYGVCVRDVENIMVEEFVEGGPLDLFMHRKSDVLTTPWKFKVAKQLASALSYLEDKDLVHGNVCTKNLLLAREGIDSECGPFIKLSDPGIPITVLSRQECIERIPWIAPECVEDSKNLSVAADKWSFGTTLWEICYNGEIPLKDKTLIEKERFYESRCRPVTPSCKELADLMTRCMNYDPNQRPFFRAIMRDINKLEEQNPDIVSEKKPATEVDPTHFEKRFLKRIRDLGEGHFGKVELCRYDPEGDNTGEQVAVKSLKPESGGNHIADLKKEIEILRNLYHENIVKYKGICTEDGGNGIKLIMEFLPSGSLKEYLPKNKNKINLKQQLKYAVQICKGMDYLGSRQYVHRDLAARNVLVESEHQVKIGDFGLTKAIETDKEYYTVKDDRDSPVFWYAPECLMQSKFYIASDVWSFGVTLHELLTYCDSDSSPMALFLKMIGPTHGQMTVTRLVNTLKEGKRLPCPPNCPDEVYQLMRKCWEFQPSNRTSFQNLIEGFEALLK
Property Measured: pIC50

Solved cases (5 shown):
compound=N#CC[C@H]1CC[C@H](n2c(CC(=O)N3CCC[C@@H]3CO)nc3cnc4[nH]ccc4c32)CC1 study_system="JAK1-JH1JH2 (Homo sapiens (Human), UniProt P23458)" property_measured=pIC50 observed_value=8.96
compound=N#CC[C@H]1CC[C@H](n2c(CC(=O)N3CCC(CO)CC3)nc3cnc4[nH]ccc4c32)CC1 study_system="JAK1-JH1JH2 (Homo sapiens (Human), UniProt P23458)" property_measured=pIC50 observed_value=9.40
compound=N#CC[C@H]1CC[C@H](n2c(C(=O)N3CCC(O)CC3)nc3cnc4[nH]ccc4c32)CC1 study_system="JAK1-JH1JH2 (Homo sapiens (Human), UniProt P23458)" property_measured=pIC50 observed_value=8.27
compound=CC(C)(O)CN1CCC(c2nc3cnc4[nH]ccc4c3n2[C@H]2CC[C@H](CC#N)CC2)CC1 study_system="JAK1-JH1JH2 (Homo sapiens (Human), UniProt P23458)" property_measured=pIC50 observed_value=8.70
compound="N#CC[C@H]1CC[C@H](n2c(CC(=O)NCC(O)c3ccccc3)nc3cnc4[nH]ccc4c32)CC1 (stereo partly shown)" study_system="JAK1-JH1JH2 (Homo sapiens (Human), UniProt P23458)" property_measured=pIC50 observed_value=9.30

(1) N#CC[C@H]1CC[C@H](n2c(CC(=O)Nc3ccc(CO)cc3)nc3cnc4[nH]ccc4c32)CC1
(2) N#CC[C@H]1CC[C@H](n2c(C(=O)NC3CC3)nc3cnc4[nH]ccc4c32)CC1
INPUT: Dear colleague, could you let me know whether 1 or 2 has the lower recorded pIC50? Thanks. State your choice using its label.
OUTPUT: 2

----------
pIC50: −log10 of the molar value.
JAK3-JH1JH2 (Homo sapiens (Human), UniProt P52333) measurements of pIC50, listed per entry.
Sequence (P52333 512-1124): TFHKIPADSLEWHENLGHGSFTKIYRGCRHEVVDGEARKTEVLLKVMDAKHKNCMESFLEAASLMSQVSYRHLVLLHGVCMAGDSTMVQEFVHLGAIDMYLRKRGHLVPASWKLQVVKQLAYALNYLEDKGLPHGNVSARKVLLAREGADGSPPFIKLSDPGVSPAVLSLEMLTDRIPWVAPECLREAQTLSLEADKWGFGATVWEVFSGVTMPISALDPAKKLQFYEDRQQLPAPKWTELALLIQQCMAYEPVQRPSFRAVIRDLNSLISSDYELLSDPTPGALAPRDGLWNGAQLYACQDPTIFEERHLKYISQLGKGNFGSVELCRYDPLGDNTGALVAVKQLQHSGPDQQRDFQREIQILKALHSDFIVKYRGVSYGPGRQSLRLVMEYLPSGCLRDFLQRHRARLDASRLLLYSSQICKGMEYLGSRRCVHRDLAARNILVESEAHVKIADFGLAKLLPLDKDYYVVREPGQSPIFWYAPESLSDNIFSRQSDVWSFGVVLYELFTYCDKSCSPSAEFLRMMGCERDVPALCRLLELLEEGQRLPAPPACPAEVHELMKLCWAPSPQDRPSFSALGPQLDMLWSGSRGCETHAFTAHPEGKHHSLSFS
Property Measured: pIC50

compound="COCCNC(=O)Cc1nc2cnc3[nH]ccc3c2n1[C@H]1CC[C@H](CC#N)CC1 [Ex. 120]" observed_value=6.64
compound="N#CC[C@H]1CC[C@H](n2c(CC(=O)NCc3ccc(F)cc3)nc3cnc4[nH]ccc4c32)CC1 [Ex. 45]" observed_value=6.74
compound="N#CC[C@H]1CC[C@H](n2c(CC(=O)NCc3ccncn3)nc3cnc4[nH]ccc4c32)CC1 [Ex. 14]" observed_value=7.36

(A) N#CC[C@H]1CC[C@H](n2c(-c3ccc(C#N)cc3)nc3cnc4[nH]ccc4c32)CC1 [Ex. 96]
(B) N#CC[C@H]1CC[C@H](n2c(CC(=O)N3CC[C@@H](O)C3)nc3cnc4[nH]ccc4c32)CC1 [Ex. 127]
INPUT: Dear colleague, could you let me know whether A or B has the lower recorded pIC50? Thanks. State your choice using its label.
OUTPUT: B
(B: 6.10, A: 6.34)

----------
assay: In vivo p.o. dosing: plasma and colon tissue concentrations (Protocols 1 and 2); design: species or system female C57BL/6 mice; settings: female, C57BL/6, mouse, plasma, po; mice, 25 mg/kg p.o., Time = 2 h; read-out: Plasma Concentration After p.o. Dosing, Mean
Property Measured: concentration at 2 h (ng/mL)

molecule=N#CC[C@H]1CC[C@H](n2c(CC(=O)NCC3CC3)nc3cnc4[nH]ccc4c32)CC1 observed_value=3.9
molecule=N#CC[C@H]1CC[C@H](n2c(CC(=O)NCC3(O)CC3)nc3cnc4[nH]ccc4c32)CC1 observed_value=4.2
molecule=N#CCC12CCC(NC(=O)Cc3nc4cnc5[nH]ccc5c4n3[C@H]3CC[C@H](CC#N)CC3)(CC1)C2 observed_value=3.2
molecule="N#CCC1CCC(n2c(-c3c[nH]cn3)nc3cnc4[nH]ccc4c32)CC1 (centres unmarked)" observed_value=4.2
molecule=N#CC[C@H]1CC[C@H](n2c(CC(=O)NC3CCOCC3)nc3cnc4[nH]ccc4c32)CC1 observed_value=8.8
molecule=N#CCCNC(=O)Cc1nc2cnc3[nH]ccc3c2n1[C@H]1CC[C@H](CC#N)CC1 observed_value=7.5
molecule=CC(C)(O)CNC(=O)Cc1nc2cnc3[nH]ccc3c2n1[C@H]1CC[C@H](CC#N)CC1 observed_value=6.1
molecule=Cn1cc(NC(=O)Cc2nc3cnc4[nH]ccc4c3n2[C@H]2CC[C@H](CC#N)CC2)cn1 observed_value=6.2
molecule=N#CC[C@H]1CC[C@H](n2c(CC(=O)NCC3CCOCC3)nc3cnc4[nH]ccc4c32)CC1 observed_value=3
molecule=CC(C)(C#N)CNC(=O)Cc1nc2cnc3[nH]ccc3c2n1[C@H]1CC[C@H](CC#N)CC1 observed_value=9.6
molecule=N#CC[C@H]1CC[C@H](n2c(CC(=O)NCC3(O)CCC3)nc3cnc4[nH]ccc4c32)CC1 observed_value=5.4

----------
pIC50: −log10 of the molar value.
JAK1-JH1JH2 (Homo sapiens (Human), UniProt P23458) measurements of pIC50, listed per entry.
Property Measured: pIC50

Solved cases (2 shown):
structure=N#CC[C@H]1CC[C@H](n2c(CC(=O)NCC3(O)CC3)nc3cnc4[nH]ccc4c32)CC1 observed_value=9.40
structure=N#CC[C@H]1CC[C@H](n2c(-c3ccc(C(=O)c4ccccc4)cc3)nc3cnc4[nH]ccc4c32)CC1 observed_value=9.40

(I) CCOC(=O)Cn1cc(-c2nc3cnc4[nH]ccc4c3n2[C@H]2CC[C@H](CC#N)CC2)cn1
(II) N#CC[C@H]1CC[C@H](n2c(-c3cc[nH]n3)nc3cnc4[nH]ccc4c32)CC1
INPUT: Dear colleague, could you let me know whether I or II has the lower recorded pIC50? Thanks. State your choice using its label.
OUTPUT: I
(I: 8.55, II: 9.52)

(1) CC(=O)N1CCC(c2nc3cnc4[nH]ccc4c3n2[C@H]2CC[C@H](CC#N)CC2)CC1
(2) N#CC[C@H]1CC[C@H](n2c(CC(=O)Nc3ccncc3)nc3cnc4[nH]ccc4c32)CC1
INPUT: Dear colleague, could you let me know whether 1 or 2 has the lower recorded pIC50? Thanks. State your choice using its label.
OUTPUT: 1

----------
molecular target: Tyk2-JH1JH2 (Homo sapiens (Human), UniProt P29597, C1142A/C936A); assay: Enzymatic inhibition assay (RapidFire HTMS), Tyk2; settings: 50 μM ATP, 200 μM substrate
Property Measured: IC50 (nM)

(A) N#CC[C@H]1CC[C@H](n2c(CC(=O)Nc3ccc(CO)cc3)nc3cnc4[nH]ccc4c32)CC1
(B) N#CC[C@H]1CC[C@H](n2c(-c3ccc(S(F)(F)(F)(F)F)cc3)nc3cnc4[nH]ccc4c32)CC1
(C) N#CC[C@H]1CC[C@H](n2c(CC(=O)N3CCC(CO)CC3)nc3cnc4[nH]ccc4c32)CC1
(D) CCOC(=O)N1CC(c2nc3cnc4[nH]ccc4c3n2[C@H]2CC[C@H](CC#N)CC2)C1
INPUT: Could you put the items above in increasing order of their IC50? The labels, placed in the requested order, form the answer.
OUTPUT: A, C, D, B
